The reported measurements were obtained from patent US20020137733A1.

CC50 at 3 days by entry:
Experiment: Cytotoxicity, inhibition of cell growth (CC50), P3HR cells
Assay type: cell-based
Conditions: human, Coulter counter
Experimental: Method 9. Cytotoxicity Measurements Based on the Inhibition of Cell Growth Cells were seeded at a rate of 5×10^3 cells/well in 96-well plates and allowed to proliferate 24 hours. Different concentrations of the test compounds were then added (in duplicates), and after 3 days of incubation at 37 C. in 5% CO2 atmosphere, the cell number was determined with a coulter counter.
Express the result in µg/mL but write the number alone.

Nc1ccn(C[C@@H](CO)OCP(=O)(O)O)c(=O)n1    30

Next:
Exam item: Output measured CC50 at 3 days for this item: O=C1NCc2ccccc2OCC/C=C/c2cncc3ccc1nc23
Marked response: 0.7

* * *

Tested on: HSV-1 Tk−
Assay: Anti-HSV CPE assay, HSV-1 Tk- (thymidine kinase deficient)
Assay type: cell-based, herpes simplex virus type 1
Conditions: Human alphaherpesvirus 1, Vero, read-out: ANTI-HSV ACTIVITY EC50 CPE assay HSV-1Tk- Vero, Vero cells
EC50 by entry:
Express the result in mg/L but write the number alone.

O=C1NCc2ccccc2OCC/C=C/c2cncc3ccc1nc23    1.1
Nc1nc2c(ncn2COCCO)c(=O)[nH]1    33

Exam item: Output measured EC50 for this item: Nc1ccn(C[C@@H](CO)OCP(=O)(O)O)c(=O)n1
Marked response: 2.4

* * *

Assay: Cytotoxicity, inhibition of cell growth (CC50), HEL cells
Format: cell-based
Conditions: human, Coulter counter
endpoint.label: CC50 at 3 days (µg/mL)
Express the result in µg/mL but write the number alone.

Some compounds with known CC50 at 3 days results, for comparison:
Nc1ccn(C[C@@H](CO)OCP(=O)(O)O)c(=O)n1 [HPMPC]    11
O=C1NCc2ccccc2OCC/C=C/c2cncc3ccc1nc23 [Compound #1]    0.1

Exam item: Output measured CC50 at 3 days for this item: Nc1nc(O)c2ncn(COC(CO)CO)c2n1 [GCV]
Marked response: 23

* * *

Experiment: in vitro
Assay type: cell-based
Details: human
endpoint.label: CC50 (µg/mL)
Express the result in µg/mL but write the number alone.

Exam item: Output measured CC50 for this item: O=C1NCc2ccccc2OCC/C=C/c2cncc3ccc1nc23
Marked response: 2.6

* * *

CYTOTOXICITY MTC Vero by entry:
Tested on: Vero cells
Assay: Cytotoxicity, alteration of cell morphology (MTC), Vero cells
Type: cell-based
Details: Table 1
Description: Method 10. Cytotoxicity Measurements Based on Alteration of Cell Morphology Minimum toxic concentration which is expressed as MTC, is the minimum concentration of compound required to cause microscopically detectable alteration in normal cell morphology. MTC: Minimal toxic concentration or minimal concentration required to alter normal cell morphology (Visual examination)

Nc1nc(O)c2ncn(COC(CO)CO)c2n1 [GCV]    >100 µg/mL

Exam item: Output measured CYTOTOXICITY MTC Vero for this item: Nc1nc2c(ncn2COCCO)c(=O)[nH]1 [ACV, acyclovir]
Marked response: >10 µg/mL

Exam item: Output measured CYTOTOXICITY MTC Vero for this item: Nc1ccn(C[C@@H](CO)OCP(=O)(O)O)c(=O)n1 [HPMPC]
Marked response: >100 µg/mL

Exam item: Output measured CYTOTOXICITY MTC Vero for this item: O=C1NCc2ccccc2OCC/C=C/c2cncc3ccc1nc23 [Compound #1]
Marked response: 25 µg/mL
